tgt: human NCX1 (Homo sapiens, UniProt P32418)
Construct: expressed in transfected cells
test method notes: NCX1 inhibition, reverse mode (Ca2+ influx into cells), FLIPR Fluo-4 assay
Assay type: cell-based
experimental conditions: inhibition of NCX1 in reverse mode (Ca2+ influx into cells); read-out: NCX1rv IC50
pIC50: −log10 of the molar value.
value type: pIC50

| molecule | pIC50 |
| --- | --- |
| CC(C)(C)NCc1cnc(Oc2ccc3c(c2)CCC(c2ccccc2)O3)s1 (centres unmarked) | 6.40 |
| CC(NC(=O)c1cnc(Oc2ccc3c(c2)CCC(c2ccccc2)O3)s1)c1ccncc1 (centres unmarked) | 6.40 |
| c1ccc(C2CCc3cc(Oc4ncc(CNCCCn5cccn5)s4)ccc3O2)cc1 (centres unmarked) | 6.52 |

A: O=C(NCc1cnc(Oc2ccc3c(c2)CCC(c2ccccc2)O3)s1)c1ccncc1 (centres unmarked)
B: OCCNCc1cnc(Oc2ccc3c(c2)CCC(c2ccccc2)O3)s1 (centres unmarked)
// query Given the listed records, identify the one among A and B with higher pIC50. Choose, then provide that item's label.
// result B
